For each entry below, report its log10(IC50) value.
molecular target: UniProt Q07817; experiment: Displacement of Bad-derived peptide from Bcl-xL by FPA in presence of 10% human serum
Sequence (Q07817 whole entry): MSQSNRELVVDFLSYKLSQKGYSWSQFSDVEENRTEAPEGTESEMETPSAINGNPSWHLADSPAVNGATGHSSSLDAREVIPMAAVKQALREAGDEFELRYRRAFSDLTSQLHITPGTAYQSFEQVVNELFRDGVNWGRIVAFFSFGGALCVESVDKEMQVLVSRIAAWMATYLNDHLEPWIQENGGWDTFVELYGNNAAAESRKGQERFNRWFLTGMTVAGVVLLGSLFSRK
Recall that a logarithmic scale is used here: each number is log10 of IC50 in nM.

Input: Which value of log10(IC50) has been reported for CN(C)CC[C@H](CSc1ccccc1)Nc1ccc(S(=O)(=O)NC(=O)c2ccc(N3CCN(Cc4ccccc4-c4ccc(-c5ccccc5)cc4)CC3)cc2)cc1[N+](=O)[O-] in the records?
Output: 2.00

Input: Value lookup for log10(IC50); key = CN(C)CC[C@H](CSc1ccccc1)Nc1ccc(S(=O)(=O)NC(=O)c2ccc(N3CCN(Cc4ccccc4)CC3)cc2)cc1[N+](=O)[O-]
Output: 2.54

Input: Give its log10(IC50) value. Item: CN(C)CC[C@H](CSc1ccccc1)Nc1ccc(S(=O)(=O)NC(=O)c2ccc(N3CCC(=Cc4ccccc4F)CC3)cc2)cc1[N+](=O)[O-]
Output: 2.88

Input: Value lookup for log10(IC50); key = CN(C)CC[C@H](CSc1ccccc1)Nc1ccc(S(=O)(=O)NC(=O)c2ccc(N3CCC(=Cc4ccc(Cl)cc4)CC3)cc2)cc1[N+](=O)[O-]
Output: 2.71

Input: # input compound: COC1(CC(C)(C)C)CCN(c2ccc(C(=O)NS(=O)(=O)c3ccc(N[C@H](CCN(C)C)CSc4ccccc4)c([N+](=O)[O-])c3)cc2)CC1 ; wanted: its log10(IC50)
Output: 2.64

Input: Returns the measured log10(IC50) for the input compound. Input: COC1(Cc2ccccc2Cl)CCN(c2ccc(C(=O)NS(=O)(=O)c3ccc(N[C@H](CCN(C)C)CSc4ccccc4)c([N+](=O)[O-])c3)cc2)CC1
Output: 1.79

Input: Item under review: CN(C)CC[C@H](CSc1ccccc1)Nc1ccc(S(=O)(=O)NC(=O)c2ccc(N3CCC(=Cc4ccc(C(F)(F)F)cc4)CC3)cc2)cc1[N+](=O)[O-] . Reported log10(IC50)?
Output: 3.11

Input: What measured log10(IC50) goes with COC1(Cc2ccccc2F)CCN(c2ccc(C(=O)NS(=O)(=O)c3ccc(N[C@H](CCN(C)C)CSc4ccccc4)c([N+](=O)[O-])c3)cc2)CC1 ?
Output: 1.90

###

tested on: FL5.12; assay: Reversal of cytokine withdrawal protection in IL3 dependent Bcl-xL overexpressing mouse FL5.12 cells in presence of 3% FBS; assay type: functional
reported property: EC50 (nM)
Your answer is read as nM, so omit the unit and give the number.

Input: Return reported EC50; argument: COc1ccc(-c2ccccc2CN2CCN(c3ccc(C(=O)NS(=O)(=O)c4ccc(N[C@H](CCN(C)C)CSc5ccccc5)c([N+](=O)[O-])c4)cc3)CC2)cc1
Output: 700

Input: What measured EC50 goes with CN(C)CC[C@H](CSc1ccccc1)Nc1ccc(S(=O)(=O)NC(=O)c2ccc(N3CCN(Cc4ccccc4-c4ccccc4)CC3)cc2)cc1[N+](=O)[O-] ?
Output: 1200

Input: Consider the compound shown here: CN(C)CC[C@H](CSc1ccccc1)Nc1ccc(S(=O)(=O)NC(=O)c2ccc(N3CCN(Cc4ccccc4-c4ccc(F)cc4)CC3)cc2)cc1[N+](=O)[O-] What is its recorded EC50?
Output: 710

###

pKi: −log10 of the molar value.
Give measured pKi for each item. Keep answers brief.

Input: Request body: readout pKi, system Apoptosis regulator Bcl-2 (Homo sapiens), query COc1cccc(-c2ccccc2CN2CCN(c3ccc(C(=O)NS(=O)(=O)c4ccc(N[C@H](CCN(C)C)CSc5ccccc5)c([N+](=O)[O-])c4)cc3)CC2)c1 . Return the value.
Output: > 9.00

Input: Give the reported pKi for CN(C)CC[C@H](CSc1ccccc1)Nc1ccc(S(=O)(=O)NC(=O)c2ccc(N3CCN(Cc4ccccc4-c4ccc(-c5ccccc5)cc4)CC3)cc2)cc1[N+](=O)[O-] (system: Apoptosis regulator Bcl-2 (Homo sapiens)).
Sequence (P10415 whole entry): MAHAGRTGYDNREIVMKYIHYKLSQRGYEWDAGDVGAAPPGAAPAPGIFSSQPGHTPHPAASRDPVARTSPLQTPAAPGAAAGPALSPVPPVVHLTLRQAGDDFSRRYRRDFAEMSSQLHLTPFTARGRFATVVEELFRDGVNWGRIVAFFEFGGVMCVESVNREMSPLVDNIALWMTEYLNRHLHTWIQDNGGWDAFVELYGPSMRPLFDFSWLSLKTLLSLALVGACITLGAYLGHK
Output: > 9.00

Input: For the record CN(C)CC[C@H](CSc1ccccc1)Nc1ccc(S(=O)(=O)NC(=O)c2ccc(N3CCN(Cc4ccccc4-c4ccc(S(C)(=O)=O)cc4)CC3)cc2)cc1[N+](=O)[O-] , what value of pKi is listed for Apoptosis regulator Bcl-2 (Homo sapiens)?
Output: > 9.00
